molecular target: KLK4 (Homo sapiens, UniProt Q9Y5K2); construct: purchased Viktor Magdolen (TUM), supplied by an academic laboratory; assay: KLK4 inactivation kinetics from progress curves (kobs vs inhibitor concentration); format: biochemical; settings: apparent second-order rate constant; substrate 250 μM
Sequence (Q9Y5K2 31-254): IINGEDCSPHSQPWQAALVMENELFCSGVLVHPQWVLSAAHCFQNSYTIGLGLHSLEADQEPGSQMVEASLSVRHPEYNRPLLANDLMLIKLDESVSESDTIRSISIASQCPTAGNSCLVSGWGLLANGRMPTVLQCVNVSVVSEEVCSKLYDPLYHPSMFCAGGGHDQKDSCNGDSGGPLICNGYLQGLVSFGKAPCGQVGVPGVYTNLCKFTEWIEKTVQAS
Overview of reported kapp KLK4 across a group of compounds:
// note: answer is a bare numeric in M⁻¹ s⁻¹

- Compound: "C#CCOCCOCCOC(=O)NC(c1ccc(NC(=N)N)cc1)P(=O)(Oc1ccccc1)Oc1ccccc1.O=C(O)C(F)(F)F (stereo not shown)"
  Assay System: "KLK4 (Homo sapiens, UniProt Q9Y5K2)"
  Units Symbol: "M⁻¹ s⁻¹"
  kapp KLK4: 16000
- Compound: "N=C(N)Nc1ccc(C(NC(=O)OCCOc2ccccc2)P(=O)(Oc2ccccc2)Oc2ccccc2)cc1.O=C(O)C(F)(F)F (stereo not shown)"
  Assay System: "KLK4 (Homo sapiens, UniProt Q9Y5K2)"
  Units Symbol: "M⁻¹ s⁻¹"
  kapp KLK4: 15000
- Compound: "COCCOCCOCCOC(=O)NC(c1ccc(NC(=N)N)cc1)P(=O)(Oc1ccccc1)Oc1ccccc1 (stereo not shown)"
  Assay System: "KLK4 (Homo sapiens, UniProt Q9Y5K2)"
  Units Symbol: "M⁻¹ s⁻¹"
  kapp KLK4: 19600

Q: Record request: kapp KLK4 value, item COCCOCCOC(=O)NC(c1ccc(NC(=N)N)cc1)P(=O)(Oc1ccccc1)Oc1ccccc1.O=C(O)C(F)(F)F (stereo not shown)
Result: 34000

* * *

target: KLK2 (human) (Homo sapiens, UniProt P20151); construct: purchased Viktor Magdolen, TUMunich (TUM), supplied by an academic laboratory; experiment: KLK2 inhibition, fluorogenic substrate H-Pro-Phe-Arg-AMC; format: biochemical; conditions: Tris buffer pH 8.3; read-out: IC50 KLK2
Sequence (P20151 25-261): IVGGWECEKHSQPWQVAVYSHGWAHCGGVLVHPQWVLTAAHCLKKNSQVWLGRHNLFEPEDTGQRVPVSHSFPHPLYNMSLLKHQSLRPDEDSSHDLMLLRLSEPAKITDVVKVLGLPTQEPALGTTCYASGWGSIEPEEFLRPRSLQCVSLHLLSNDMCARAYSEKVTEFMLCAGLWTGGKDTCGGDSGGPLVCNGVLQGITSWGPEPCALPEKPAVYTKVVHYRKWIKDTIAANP
Overview of reported IC50 across a group of molecules:

- Molecule: "N=C(N)Nc1ccc(C(NC(=O)OCCOc2ccccc2)P(=O)(Oc2ccccc2)Oc2ccccc2)cc1.O=C(O)C(F)(F)F (centres unmarked) [Compound 30, 2,2,2-trifluoroacetate]"
  Experimental Endpoint: "IC50"
  Test Value: "100 to 1000 nM"

The record that follows has no IC50 shown yet.
Q: Record request: IC50 value, item COCCOCCOC(=O)NC(c1ccc(NC(=N)N)cc1)P(=O)(Oc1ccccc1)Oc1ccccc1.O=C(O)C(F)(F)F (centres unmarked) [Compound 28, 2,2,2-trifluoroacetate]
Result: 100 to 1000 nM

* * *

Overview of reported pIC50 across a group of compounds:
target: FXa (Homo sapiens, UniProt P00742); construct: purchased Nodia; assay: FXa inhibition, chromogenic substrate Biophen CS-11(32); assay type: biochemical
Sequence (P00742 235-488 limits assumed): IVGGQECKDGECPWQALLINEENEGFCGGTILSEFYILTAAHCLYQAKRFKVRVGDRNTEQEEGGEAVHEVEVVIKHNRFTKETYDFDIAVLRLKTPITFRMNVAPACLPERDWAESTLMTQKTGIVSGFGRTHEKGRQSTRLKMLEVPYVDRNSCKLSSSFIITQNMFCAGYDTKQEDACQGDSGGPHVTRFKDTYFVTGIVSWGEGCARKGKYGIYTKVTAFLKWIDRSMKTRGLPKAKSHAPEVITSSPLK
Sequence (P00742 41-179 partner limits assumed): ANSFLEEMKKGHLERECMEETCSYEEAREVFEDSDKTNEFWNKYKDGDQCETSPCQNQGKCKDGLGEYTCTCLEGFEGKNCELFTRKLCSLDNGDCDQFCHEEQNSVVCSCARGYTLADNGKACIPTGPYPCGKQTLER
pIC50: −log10 of the molar value.

Some compounds with recorded pIC50:
- Compound: "COCCOC(=O)NC(c1ccc(NC(=N)N)cc1)P(=O)(Oc1ccccc1)Oc1ccccc1 (stereo not shown) [Compound 29, 2,2,2-trifluoroacetate]"
  Experimental Endpoint: "pIC50"
  Test Value: "< 3.60"
- Compound: "N=C(N)Nc1ccc(C(NC(=O)OCCOCCOCc2cn(CCOCCOCCOCCNC(=O)CN3CCN(CC(=O)O)CCN(CC(=O)O)CCN(CC(=O)O)CC3)nn2)P(=O)(Oc2ccccc2)Oc2ccccc2)cc1 (stereo not shown)"
  Experimental Endpoint: "pIC50"
  Test Value: "3.60 to 5.00"

Q: GET /values?readout=pIC50&system=FXa (Homo sapiens, UniProt P00742)&item= CCCCCC(=O)NCCOC(=O)NC(c1ccc(NC(=N)N)cc1)P(=O)(Oc1ccccc1)Oc1ccccc1 (stereo not shown)
Result: 3.60 to 5.00

Q: GET /values?readout=pIC50&system=FXa (Homo sapiens, UniProt P00742)&item= CCCCCCOC(=O)NC(c1ccc(NC(=N)N)cc1)P(=O)(Oc1ccccc1)Oc1ccccc1 (stereo not shown)
Result: 5.00 to 5.60

Q: GET /values?readout=pIC50&system=FXa (Homo sapiens, UniProt P00742)&item= N=C(N)Nc1ccc(C(NC(=O)OCc2ccccc2)P(=O)(Oc2ccccc2)Oc2ccccc2)cc1 (stereo not shown) [Compound 5a, 2,2,2-trifluoroacetate, reference compound]
Result: 5.00 to 5.60

Q: GET /values?readout=pIC50&system=FXa (Homo sapiens, UniProt P00742)&item= N=C(N)Nc1ccc(CC(NC(=O)OCc2ccccc2)P(=O)(Oc2ccccc2)Oc2ccccc2)cc1 (stereo not shown) [UPA1, reference compound]
Result: 3.60 to 5.00

Q: GET /values?readout=pIC50&system=FXa (Homo sapiens, UniProt P00742)&item= C#CCOCCOCCOC(=O)NC(c1ccc(NC(=N)N)cc1)P(=O)(Oc1ccccc1)Oc1ccccc1.O=C(O)C(F)(F)F (stereo not shown) [Compound 27, 2,2,2-trifluoroacetate]
Result: 3.60 to 5.00
